Molecular target: PDGF-receptor beta enzyme comprising the tyrosine kinase domain (Homo sapiens, UniProt P09619)
Construct: from amino acid 545 to 1106 of GenBank Access NO: AAA36427
Sequence (P09619 545-1106): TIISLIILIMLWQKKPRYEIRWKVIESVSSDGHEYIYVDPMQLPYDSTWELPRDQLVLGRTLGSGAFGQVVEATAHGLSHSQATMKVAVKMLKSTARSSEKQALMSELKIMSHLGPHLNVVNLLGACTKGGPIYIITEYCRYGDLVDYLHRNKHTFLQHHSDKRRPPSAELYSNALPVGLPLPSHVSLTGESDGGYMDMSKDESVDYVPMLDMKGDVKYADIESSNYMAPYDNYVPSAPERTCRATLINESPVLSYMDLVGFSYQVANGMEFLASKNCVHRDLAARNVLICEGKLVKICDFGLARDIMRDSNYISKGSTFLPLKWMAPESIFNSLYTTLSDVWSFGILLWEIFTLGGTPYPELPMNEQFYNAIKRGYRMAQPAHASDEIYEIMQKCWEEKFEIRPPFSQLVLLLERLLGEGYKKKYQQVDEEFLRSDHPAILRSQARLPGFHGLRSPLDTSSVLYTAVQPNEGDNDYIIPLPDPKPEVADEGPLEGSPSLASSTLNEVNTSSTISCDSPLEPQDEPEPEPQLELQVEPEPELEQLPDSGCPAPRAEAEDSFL
Assay: Inhibition of PDGF-receptor kinase activity (cell-free, PLC1 peptide, 33P Flashplate)
Assay type: biochemical
Conditions: PDGF-R kinase activity; read-out: IC50
Each record here notes measured IC50.

* CN1CCN(c2ccc3c(c2)Cc2c-3n[nH]c2Nc2ccccc2)CC1 | 449 nM
* CCOc1cc2c(cc1OCC(O)CN1CCCC1)-c1n[nH]c(Nc3cccnc3)c1C2 (stereo not drawn) | 7.55 nM
* COCCCOc1cc2c(cc1OC)-c1n[nH]c(Nc3ccc(F)c(Cl)c3)c1C2 | 85 nM

Incoming: Given the compound COc1cc2c(cc1OCCCn1ccnc1)Cc1c-2n[nH]c1Nc1ccc(F)c(Cl)c1 , what is its reported IC50?
Outgoing: 34.9 nM

Incoming: Give its IC50 value. Item: COc1ccc(OC)c(Nc2[nH]nc3c2C(C)c2ccccc2-3)c1 (stereo not drawn)
Outgoing: 189 nM

Incoming: If you can, please state the reported IC50 value of COc1cc2c(cc1OC)-c1n[nH]c(Nc3ccccc3F)c1C2 .
Outgoing: 56 nM

---

Molecular target: PDGF-receptor beta enzyme comprising the tyrosine kinase domain (Homo sapiens, UniProt P09619)
Construct: from amino acid 545 to 1106 of GenBank Access NO: AAA36427
Assay: Inhibition of PDGF-receptor kinase activity (cell-free, PLC1 peptide, 33P Flashplate)
Type: biochemical
Details: PDGF-R kinase activity; compound at 10 uM; read-out: Percent Inhibition @ 10 uM
parameter: inhibition at 10 µM

• OCCCOc1cc2c(cc1OCCCO)-c1n[nH]c(Nc3cccc(F)c3)c1C2 [Compound 398] = 96%
• COc1cc2c(cc1OC)-c1c(c(Nc3cccc(F)c3)nn1C(=O)c1ccc(F)cc1)C2 [Compound 492] = 78%
• COCCCOc1cc2c(cc1OCCCOC)-c1n[nH]c(Nc3cccc(OC)c3)c1C2 [Compound 284] = 84.6%
• COc1cc2c(cc1OC)-c1c(c(Nc3cccc(F)c3)nn1COC(=O)C(C)(C)C)C2 [Compound 409] = 85.5%
• COc1ccc(Nc2[nH]nc3c2Cc2ccc(C)cc2-3)cc1 [Compound 183] = 53%

Incoming: Query (compound): COc1ccc2c(c1)Cc1c-2n[nH]c1Nc1cc(OC)ccc1OC [Compound 85] ; field requested: inhibition at 10 µM
Outgoing: 61%

Incoming: # query: inhibition at 10 µM of entry COc1cc2c(cc1OC)-c1c(c(Nc3cccc(Br)c3)nn1C)C2 [Compound 91]
Outgoing: 76%

Incoming: Record request: inhibition at 10 µM value, item OCCCOc1cccc2c1Cc1c-2n[nH]c1Nc1cccc(Cl)c1 [Compound 440]
Outgoing: 89.5%

Incoming: Given COc1cc2c(cc1OC)-c1n[nH]c(NCc3ccccc3C)c1C2 [Compound 223] , state its recorded inhibition at 10 µM.
Outgoing: 97%

---

Target: PDGF-receptor beta enzyme comprising the tyrosine kinase domain (Homo sapiens)
Construct: from amino acid 545 to 1106 of GenBank Access NO: AAA36427
Test: Inhibition of PDGF-receptor kinase activity (cell-free, PLC1 peptide, 33P Flashplate)
Assay type: biochemical
Settings: PDGF-R kinase activity; compound at 10 uM; read-out: Percent Inhibition @ 10 uM
Examples of compounds with documented inhibition at 10 µM follow.
Return type: number; implicit unit %.

Some entries whose results are on file:
• COc1cc2c(cc1OCCCN1CCN(C)CC1)Cc1c-2n[nH]c1Nc1cccc(F)c1 = 100
• CCC1c2cc(OC)c(OC)cc2-c2n[nH]c(Nc3cccc(OC)c3)c21 (centres unmarked) = 92
• COc1cc2c(cc1OCC(O)CO)Cc1c-2n[nH]c1NCc1ccccc1F (centres unmarked) = 100
• COc1cc2c(cc1OC)-c1n[nH]c(Nc3ccco3)c1C2 = 85

Moving on to another compound below.
Incoming: Given the compound COC(=O)c1cccc(Nc2[nH]nc3c2Cc2cc(OCCCN4CCCC4)c(OC)cc2-3)c1 , what is its reported inhibition at 10 µM?
Outgoing: 85
